- experimental_system: ceTIR-1 (Caenorhabditis elegans, UniProt Q86DA5)
- Construct: near-intact ARM-SAM-SAM-TIR, residues 162-872 (HMD...QQR), N-terminal 6xHis + TEV site, HEK293F expression, mostly 9-mer ring, partly dissociated
- Sequence (Q86DA5 216-926): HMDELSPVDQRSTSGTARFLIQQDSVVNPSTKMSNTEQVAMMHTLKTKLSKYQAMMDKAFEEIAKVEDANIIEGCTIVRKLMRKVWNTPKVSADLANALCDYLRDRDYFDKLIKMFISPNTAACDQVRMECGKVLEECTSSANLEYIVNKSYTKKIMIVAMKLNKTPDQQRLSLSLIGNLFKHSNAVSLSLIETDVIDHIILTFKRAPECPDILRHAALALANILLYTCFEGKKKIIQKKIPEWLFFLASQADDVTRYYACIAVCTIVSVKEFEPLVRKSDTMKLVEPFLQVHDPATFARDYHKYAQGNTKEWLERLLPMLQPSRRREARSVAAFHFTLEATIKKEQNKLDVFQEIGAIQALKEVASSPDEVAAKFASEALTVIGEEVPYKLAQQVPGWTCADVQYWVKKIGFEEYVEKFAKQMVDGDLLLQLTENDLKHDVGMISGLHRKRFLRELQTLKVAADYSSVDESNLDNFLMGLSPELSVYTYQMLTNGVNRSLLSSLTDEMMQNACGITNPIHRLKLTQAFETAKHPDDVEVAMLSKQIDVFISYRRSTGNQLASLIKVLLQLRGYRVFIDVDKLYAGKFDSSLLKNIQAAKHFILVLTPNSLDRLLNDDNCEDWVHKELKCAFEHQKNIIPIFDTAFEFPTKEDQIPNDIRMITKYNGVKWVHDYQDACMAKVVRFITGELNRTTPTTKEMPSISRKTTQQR
- protocol_notes: HPLC NAD+ consumption, dose response
readout_name: IC50
A bare number is not enough; add the unit after it.

Problem: // returns reported IC50 for input NC(=O)c1cccnc1
Result: 910 µM
